# Assayed System: T1, soluble IL-6 receptor (sIL-6R) (human (from the printed accession …, UniProt P08887 20-355))
# T1 chain: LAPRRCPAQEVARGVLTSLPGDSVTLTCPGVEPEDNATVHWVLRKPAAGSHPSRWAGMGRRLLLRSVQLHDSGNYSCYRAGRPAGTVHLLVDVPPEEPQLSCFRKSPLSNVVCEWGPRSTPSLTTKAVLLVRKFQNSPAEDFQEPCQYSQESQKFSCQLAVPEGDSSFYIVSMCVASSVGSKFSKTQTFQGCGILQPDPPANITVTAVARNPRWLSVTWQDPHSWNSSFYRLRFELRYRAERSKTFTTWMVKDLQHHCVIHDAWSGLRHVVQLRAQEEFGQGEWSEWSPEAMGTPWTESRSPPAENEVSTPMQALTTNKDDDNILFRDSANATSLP
# Method: SPR
# reported Kd; entries follow
Note to self: number, then unit, no commentary.

Binder	Kd
tocilizumab-TGN 1:25 (antibody, V domains shown, Tris-GalNAc-PEG5 (TGN) on accessible primary amines (lysines), not site-specific; coupling ratio 1:25; GPR of 15.36 for the antibody | Tris-GalNAc-PEG5 (TGN) on accessible primary amines (lysines), not site-specific; coupling ratio 1:25; GPR of 15.36 for the antibody) VH: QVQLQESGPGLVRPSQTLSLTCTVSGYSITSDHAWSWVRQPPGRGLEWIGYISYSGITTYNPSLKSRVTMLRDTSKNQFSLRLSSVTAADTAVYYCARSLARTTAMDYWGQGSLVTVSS VL: DIQMTQSPSSLSASVGDRVTITCRASQDISSYLNWYQQKPGKAPKLLIYYTSRLHSGVPSRFSGSGSGTDFTFTISSLQPEDIATYYCQQGNTLPYTFGQGTKVEIK	0.328 nM

Turning now to a further binder:
Prompt line: Kindly indicate its recorded Kd. Item: tocilizumab-TGN 1:5 (antibody, V domains shown, Tris-GalNAc-PEG5 (TGN) on accessible primary amines (lysines), not site-specific; coupling ratio 1:5; GPR 2.51 for the antibody | Tris-GalNAc-PEG5 (TGN) on accessible primary amines (lysines), not site-specific; coupling ratio 1:5; GPR 2.51 for the antibody) VH: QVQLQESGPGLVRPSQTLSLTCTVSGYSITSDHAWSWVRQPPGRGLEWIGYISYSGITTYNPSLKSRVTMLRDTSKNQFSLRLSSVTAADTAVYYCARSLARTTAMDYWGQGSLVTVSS VL: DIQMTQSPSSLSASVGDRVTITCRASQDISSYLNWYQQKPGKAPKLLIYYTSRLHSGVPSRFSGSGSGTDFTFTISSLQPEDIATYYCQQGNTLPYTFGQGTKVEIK
Response line: 0.093 nM
